# collection of Ki values tested on JAK3 (Homo sapiens, UniProt P52333)

>  <compound>
Nc1nn2cc(-c3ccc(N4CCN(CCOCCO)CC4)nc3)cnc2c1-c1ccccn1 [Compound V-150]

>  <Ki>
> 5 µM

$$$$
>  <compound>
CCN(CCC#N)C(=O)c1cccc(-c2cnc3c(-c4ccccn4)c(N)nn3c2)n1 [Compound V-116]

>  <Ki>
> 5 µM

$$$$
>  <compound>
Nc1nn2cc(-c3ccc(CN4CC[C@@H](N)C4)cc3)cnc2c1-c1ccccn1 [Compound V-231]

>  <Ki>
0.5 to 5 µM

$$$$
>  <compound>
NC1NN2C=C(c3cccc(CN4CC[C@H](N)C4)c3)C=NC2=C1c1ccccn1 (some centres unmarked) [Compound V-227]

>  <Ki>
> 5 µM

$$$$

Given Nc1nn2cc(CCCN3CCCC3)cnc2c1-c1ccccn1 [Compound V-311] , report its Ki on JAK3 (Homo sapiens, UniProt P52333). > 5 µM

Given CCCCNC(=O)c1cccc(-c2cnc3c(-c4ccccn4)c(N)nn3c2)n1 [Compound V-109] , report its Ki on JAK3 (Homo sapiens, UniProt P52333). > 5 µM

Given Cc1cnc2c(-c3cc(N4CCC[C@H]4CO)ncn3)c(N)nn2c1 [Compound V-306] , report its Ki on JAK3 (Homo sapiens, UniProt P52333). 0.5 to 5 µM

Given Nc1nn2cc(-c3ccccc3F)cnc2c1-c1ccccn1 [Compound V-13] , report its Ki on JAK3 (Homo sapiens, UniProt P52333). > 5 µM

---

Below is a list of entries, each paired with its recorded Ki value.
Target: JAK3 (Homo sapiens)
Sequence (P52333 1-1124): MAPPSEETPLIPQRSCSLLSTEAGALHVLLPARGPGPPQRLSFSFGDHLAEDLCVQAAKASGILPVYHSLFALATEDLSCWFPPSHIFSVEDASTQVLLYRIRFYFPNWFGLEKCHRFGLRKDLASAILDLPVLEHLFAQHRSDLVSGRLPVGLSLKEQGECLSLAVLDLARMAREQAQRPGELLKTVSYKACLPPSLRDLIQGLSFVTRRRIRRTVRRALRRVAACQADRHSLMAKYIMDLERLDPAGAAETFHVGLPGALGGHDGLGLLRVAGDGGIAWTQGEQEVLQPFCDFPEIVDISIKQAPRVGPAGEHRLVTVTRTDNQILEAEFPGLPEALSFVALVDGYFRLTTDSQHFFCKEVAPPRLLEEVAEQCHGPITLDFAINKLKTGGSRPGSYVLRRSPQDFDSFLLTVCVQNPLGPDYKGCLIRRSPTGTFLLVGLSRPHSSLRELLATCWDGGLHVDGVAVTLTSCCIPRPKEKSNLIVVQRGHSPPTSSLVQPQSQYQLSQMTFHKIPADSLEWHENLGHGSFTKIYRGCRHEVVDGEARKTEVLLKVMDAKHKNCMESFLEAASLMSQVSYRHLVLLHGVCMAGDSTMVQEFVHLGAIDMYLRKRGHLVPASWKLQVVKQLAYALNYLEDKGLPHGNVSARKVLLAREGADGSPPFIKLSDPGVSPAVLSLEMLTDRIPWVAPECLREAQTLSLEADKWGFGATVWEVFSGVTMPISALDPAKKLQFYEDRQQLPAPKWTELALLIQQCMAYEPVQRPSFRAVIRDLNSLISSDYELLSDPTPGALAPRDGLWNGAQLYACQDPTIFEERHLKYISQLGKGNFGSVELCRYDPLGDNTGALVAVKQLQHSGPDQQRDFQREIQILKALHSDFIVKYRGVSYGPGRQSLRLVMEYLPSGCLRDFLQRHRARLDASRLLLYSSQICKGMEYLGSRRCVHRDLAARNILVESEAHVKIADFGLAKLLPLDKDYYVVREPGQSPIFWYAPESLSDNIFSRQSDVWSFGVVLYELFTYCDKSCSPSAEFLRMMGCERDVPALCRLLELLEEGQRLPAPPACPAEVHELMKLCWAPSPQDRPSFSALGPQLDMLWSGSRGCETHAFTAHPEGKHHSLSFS

Here is how some compounds turned out for Ki.
>  <compound>
CNC(=O)c1cccc(-c2cnc3c(-c4ccccn4)c(N)nn3c2)n1

>  <Ki>
> 5 µM

$$$$
>  <compound>
Nc1nn2cc(-c3cccc(C(=O)N4CCC4)n3)cnc2c1-c1ccccn1

>  <Ki>
> 5 µM

$$$$
>  <compound>
Nc1nn2cc(-c3ccc(C(=O)N4CCC(N5CCCC5)CC4)cn3)cnc2c1-c1ccccn1

>  <Ki>
0.5 to 5 µM

$$$$
>  <compound>
Cc1cnc2c(-c3cc(N[C@@H](C)C(C)C)ncn3)c(N)nn2c1

>  <Ki>
0.5 to 5 µM

$$$$
>  <compound>
CN(CCc1ccccn1)c1ccc(-c2cnc3c(-c4ccccn4)c(N)nn3c2)cn1

>  <Ki>
> 5 µM

$$$$

In one line, give reported Ki of the entry Cc1cnc2c(-c3cc(N4CCCC(O)C4)ncn3)c(N)nn2c1 (centres unmarked) . 0.5 to 5 µM

In one line, give reported Ki of the entry COCCCN1CCN(C(=O)c2cccc(-c3cnc4c(-c5ccccn5)c(N)nn4c3)n2)CC1 . > 5 µM

In one line, give reported Ki of the entry COC(=O)N1CCN(C(=O)c2ccc(-c3cnc4c(-c5ccccn5)c(N)nn4c3)nc2)CC1 . 0.5 to 5 µM
